Data origin: patent US9926281B2

Target: human ADAMTS-5 (Homo sapiens (Human), UniProt Q9UNA0)
Sequence (Q9UNA0 262-930): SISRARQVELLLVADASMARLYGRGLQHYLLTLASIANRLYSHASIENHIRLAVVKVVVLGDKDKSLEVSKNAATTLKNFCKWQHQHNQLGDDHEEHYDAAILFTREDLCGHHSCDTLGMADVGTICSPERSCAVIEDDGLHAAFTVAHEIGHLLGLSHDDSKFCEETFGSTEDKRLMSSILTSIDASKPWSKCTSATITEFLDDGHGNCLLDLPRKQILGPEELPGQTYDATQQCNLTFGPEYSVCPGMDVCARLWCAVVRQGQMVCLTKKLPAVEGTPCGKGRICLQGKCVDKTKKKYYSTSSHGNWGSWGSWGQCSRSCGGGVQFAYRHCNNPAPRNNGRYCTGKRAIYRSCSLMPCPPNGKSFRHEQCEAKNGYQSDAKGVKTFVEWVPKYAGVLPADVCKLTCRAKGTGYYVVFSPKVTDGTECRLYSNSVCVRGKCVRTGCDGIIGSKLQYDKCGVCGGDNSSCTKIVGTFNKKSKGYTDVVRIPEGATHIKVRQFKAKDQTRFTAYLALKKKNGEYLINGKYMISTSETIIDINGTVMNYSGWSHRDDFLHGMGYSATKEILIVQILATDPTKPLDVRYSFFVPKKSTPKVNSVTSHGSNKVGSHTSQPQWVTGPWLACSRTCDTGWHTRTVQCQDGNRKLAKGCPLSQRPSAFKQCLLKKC
Experimental setup: read-out: hADAMTS-5 potency IC50
Field: IC50. Provide a value for each of the compounds that follow.
Numbers only, in µM.

Cc1cc(Cl)ccc1N1CCN(C(=O)CCC2(c3ccccc3)NC(=O)NC2=O)CC1 (centres unmarked) [compound 13]	0.836

# return IC50 for each item in the list
1. O=C1NC(=O)C(CCC(=O)N2CCN(c3ccc(F)c(Cl)c3)CC2)(C2CC2)N1 (centres unmarked) [compound 114]
2. Cc1ccc(C)c(N2CCN(C(=O)CCC3(C)NC(=O)NC3=O)CC2)c1 (centres unmarked) [compound 39]
3. C[C@@H]1CN(C(=O)CCC2(c3ccccc3)NC(=O)NC2=O)CCN1c1ccccc1 (some centres unmarked) [compound 131]
4. Cc1cc(F)ccc1N1CCN(C(=O)CCC2(C)NC(=O)NC2=O)CC1 (centres unmarked) [compound 61]

0.067
0.57
1.26
2.94

# return IC50 for each item in the list
1. CC1(CCC(=O)N2CCN(c3cncc(F)c3)CC2)NC(=O)NC1=O (centres unmarked) [compound 84]
2. CC1CN(C(=O)CCC2(C3CC3)NC(=O)NC2=O)CCN1c1cc(Cl)cc(Cl)c1 (centres unmarked) [compound 130]

1. 0.815
2. 0.126

###

Field: pIC50. Provide a value for each of the compounds that follow.
Target: UniProt:P78536
Experimental setup: read-out: TACE potency IC50
One number for each entry, as −log10 of the molar value.

O=C1NC(=O)C(CCC(=O)N2CCN(c3ccc4ccccc4c3)CC2)(c2ccccc2)N1 (stereo not shown)	5.60

Now for the compound whose pIC50 we want.
Which pIC50 is reported for this compound? Cc1c(Cl)cccc1N1CCN(C(=O)C(C)CC2(C3CC3)NC(=O)NC2=O)CC1 (stereo not shown) 5.91

###

Field: pIC50. Provide a value for each of the compounds that follow.
Target: human MMP13 (Homo sapiens (Human))
Experimental setup: read-out: hMMP-13 potency IC50
pIC50: −log10 of the molar value.

CC(CC1(C2CNC2)NC(=O)NC1=O)C(=O)N1CCN(c2cc(Cl)cc(Cl)c2)CC1 (centres unmarked)	< 4.70
Cc1ccc(C)c(N2CCN(C(=O)CCC3(c4cccnc4)NC(=O)NC3=O)CC2)c1 (centres unmarked)	< 4.70
Cc1c(Cl)cc(Cl)cc1N1CCN(C(=O)CCC2(C3CC3)NC(=O)NC2=O)C[C@@H]1C (some centres unmarked)	< 4.70

# return pIC50 for each item in the list
1. CN(C)CCOc1ccc(C2(CCC(=O)N3CCN(c4cccc(Cl)c4)CC3)NC(=O)NC2=O)cc1 (centres unmarked)
2. Cc1ccc(Cl)cc1N1CCN(C(=O)CCC2(CN(C)C)NC(=O)NC2=O)CC1 (centres unmarked)
3. CC(CC1(C)NC(=O)NC1=O)C(=O)N1CCN(c2cc(F)cc(Cl)c2)[C@@H](C)C1 (some centres unmarked)

5.42
< 4.70
< 5.40

# return pIC50 for each item in the list
1. O=C1NC(=O)C(CCC(=O)N2CCN(c3cccc(Cl)c3)CC2)(c2ccc(Cl)cc2)N1 (centres unmarked)
2. CC1(CC(COCc2ccccc2)C(=O)N2CCN(c3cc(Cl)cc(Cl)c3)CC2)NC(=O)NC1=O (centres unmarked)

1. 5.58
2. < 4.70

###

Target: human ADAMTS-5 (Homo sapiens (Human))
Experimental setup: read-out: hADAMTS-5 potency IC50
Value type: IC50

Past entries and their recorded results:
CC(CC1(C2CC2)NC(=O)NC1=O)C(=O)N1CCN(c2ccc(F)c(F)c2)[C@@H](C)C1 (stereo partly shown)	20 nM
C[C@H]1CN(C(=O)CCC2(C3CC3)NC(=O)NC2=O)CCN1c1cccc(Br)c1 (stereo partly shown)	76 nM
CC(CC1(C)NC(=O)NC1=O)C(=O)N1CCN(c2cc(Cl)cc(Cl)c2)CC1 (stereo not shown)	22 nM
C[C@H]1CN(C(=O)CC[C@@]2(C3CC3)NC(=O)NC2=O)CCN1c1cc(F)cc(-c2cn[nH]c2)c1	25 nM

# return IC50 for each item in the list
1. Cc1cccc(C2(CCC(=O)N3CCN(c4cccc(Cl)c4)[C@@H](C)C3)NC(=O)NC2=O)n1 (stereo partly shown)
2. CC(CC1(CN2CCOCC2)NC(=O)NC1=O)C(=O)N1CCN(c2cc(Cl)cc(Cl)c2)CC1 (stereo not shown)
3. CC(CC1(C)NC(=O)NC1=O)C(=O)N1CCN(c2cccc(F)c2)[C@@H](C)C1 (stereo partly shown)
4. C[C@H]1CN(C(=O)CC[C@@]2(C3CC3)NC(=O)NC2=O)CCN1c1cc(Cl)cc(Cl)c1
5. C[C@H]1CN(C(=O)CC[C@@]2(C3CC3)NC(=O)NC2=O)CCN1c1ccc(Cl)c(Cl)c1 [compound 416]
6. Cc1c(Cl)cc(F)cc1N1CCN(C(=O)CCC2(C)NC(=O)NC2=O)CC1 (stereo not shown)

1: 57 nM; 2: 66 nM; 3: 37 nM; 4: 16 nM; 5: 12 nM; 6: 294 nM

###

Field: IC50. Provide a value for each of the compounds that follow.
Target: UniProt:P78536
Experimental setup: read-out: TACE potency IC50

C[C@H]1CN(C(=O)CCC2(C3CC3)NC(=O)NC2=O)CCN1c1cccc(Cl)c1 (stereo partly shown)	> 20 µM
C[C@H]1CN(C(=O)CCC2(c3cnccn3)NC(=O)NC2=O)CCN1c1cc(F)cc(Cl)c1 (stereo partly shown)	> 4 µM
C[C@H]1CN(C(=O)CCC2(C3CC3)NC(=O)NC2=O)CCN1c1ccc2[nH]ccc2c1 (stereo partly shown)	> 20 µM

Now for the compound whose IC50 we want.
Which IC50 is reported for this compound? COCC1(CC(C)C(=O)N2CCN(c3cc(F)ccc3C)[C@@H](C)C2)NC(=O)NC1=O (stereo partly shown) > 4 µM

###

Field: pIC50. Provide a value for each of the compounds that follow.
Target: human TACE (Homo sapiens (Human), UniProt P78536)
Sequence (P78536 whole entry, looked up, change not shown): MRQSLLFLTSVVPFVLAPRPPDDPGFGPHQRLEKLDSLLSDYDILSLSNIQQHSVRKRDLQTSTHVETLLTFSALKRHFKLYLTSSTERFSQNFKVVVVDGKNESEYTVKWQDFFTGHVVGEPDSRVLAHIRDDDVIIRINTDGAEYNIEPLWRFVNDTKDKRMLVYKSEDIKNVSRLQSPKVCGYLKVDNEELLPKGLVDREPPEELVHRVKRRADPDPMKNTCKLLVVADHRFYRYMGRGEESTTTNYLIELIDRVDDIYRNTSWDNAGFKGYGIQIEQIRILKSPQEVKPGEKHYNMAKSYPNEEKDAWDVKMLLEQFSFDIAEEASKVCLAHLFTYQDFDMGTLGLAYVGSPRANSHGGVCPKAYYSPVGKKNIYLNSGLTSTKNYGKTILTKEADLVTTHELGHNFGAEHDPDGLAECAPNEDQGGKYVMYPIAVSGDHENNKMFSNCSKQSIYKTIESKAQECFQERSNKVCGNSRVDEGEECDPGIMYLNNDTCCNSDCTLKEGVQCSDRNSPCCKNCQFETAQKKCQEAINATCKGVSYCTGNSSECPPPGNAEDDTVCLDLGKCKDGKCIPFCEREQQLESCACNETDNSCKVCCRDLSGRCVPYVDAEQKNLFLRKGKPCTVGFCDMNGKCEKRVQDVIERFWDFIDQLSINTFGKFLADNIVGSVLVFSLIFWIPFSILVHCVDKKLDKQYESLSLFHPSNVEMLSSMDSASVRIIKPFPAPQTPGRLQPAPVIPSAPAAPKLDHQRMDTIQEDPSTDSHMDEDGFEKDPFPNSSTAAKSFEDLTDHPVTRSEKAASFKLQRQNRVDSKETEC
Experimental setup: read-out: TACE potency IC50
pIC50: −log10 of the molar value.

O=C1NC(=O)C(CCC(=O)N2CCN(c3cccc(Cl)c3)CC2)(C2CCCC2)N1 (stereo not shown) [compound 109]	5.28
Cc1nc(C2(CCC(=O)N3CCN(c4cc(F)cc(F)c4)[C@@H](C)C3)NC(=O)NC2=O)c[nH]1 (stereo partly shown) [compound 354]	< 4.70
O=C1NC(=O)C(CCC(=O)N2CCN(c3ccc4cnccc4c3)CC2)(c2ccccc2)N1 (stereo not shown) [compound 14]	< 5.40
O=C1NC(=O)C(CCC(=O)N2CCN(c3ccccc3)CC2)(c2ccccc2)N1 (stereo not shown) [compound 4]	< 5.26
COCC1(CC(C)C(=O)N2CCN(c3cncc(Cl)c3)[C@@H](C)C2)NC(=O)NC1=O (stereo partly shown) [compound 363]	< 4.92

# return pIC50 for each item in the list
1. CC1(CCC(=O)N2CCN(c3ccc(Cl)c(Cl)c3)CC2)NC(=O)NC1=O (stereo not shown) [compound 67]
2. O=C1NC(=O)C(CCC(=O)N2CCN(c3cccc(Cl)c3)CC2)(c2ccccc2)N1 (stereo not shown) [compound 6]
3. C[C@H]1CN(C(=O)CCC2(C3CC3)NC(=O)NC2=O)CCN1c1cccc(-c2cncc(Cl)c2)c1 (stereo partly shown) [compound 322]
4. CC(CC1(C)NC(=O)NC1=O)C(=O)N1CCN(c2cccc(Cl)c2)[C@@H](C)C1 (stereo partly shown) [compound 214]
5. C[C@H]1CN(C(=O)CCC2(C3CC3)NC(=O)NC2=O)CCN1c1cccc(-c2ccc(Cl)nn2)c1 (stereo partly shown) [compound 381]
6. C[C@H]1CN(C(=O)CCC2(C3CC3)NC(=O)NC2=O)CCN1c1cccc(Br)c1 (stereo partly shown) [compound 270]

< 5.40
5.63
< 5.40
< 5.40
< 4.70
< 5.40

# return pIC50 for each item in the list
1. COC[C@]1(C[C@H](C)C(=O)N2CCN(c3cccc(-c4cn[nH]c4)c3)[C@@H](C)C2)NC(=O)NC1=O [compound 380]
2. Cc1cccc(C2(CCC(=O)N3CCN(c4ccc(Cl)cc4)[C@@H](C)C3)NC(=O)NC2=O)n1 (stereo partly shown) [compound 312]

< 5.40
5.43

# return pIC50 for each item in the list
1. CC(C)n1cc(-c2cccc(N3CCN(C(=O)CCC4(C5CC5)NC(=O)NC4=O)C[C@@H]3C)c2)cn1 (stereo partly shown) [compound 370]
2. C[C@H]1CN(C(=O)CCC2(C3CC3)NC(=O)NC2=O)CCN1c1ccc(Cl)c(Cl)c1 (stereo partly shown) [compound 167]
3. C[C@H]1CN(C(=O)CCC2(C)NC(=O)NC2=O)CCN1c1cc(F)cc(F)c1 (stereo partly shown) [compound 156]
4. COCC(CC1(C)NC(=O)NC1=O)C(=O)N1CCN(c2cccc(F)c2)[C@@H](C)C1 (stereo partly shown) [compound 292]

["< 4.70", "< 5.40", "< 4.70", "< 5.40"]

# return pIC50 for each item in the list
1. CC(CC1(C)NC(=O)NC1=O)C(=O)N1CCN(c2cncc(F)c2)[C@@H](C)C1 (stereo partly shown) [compound 277]
2. CC1(CC(CO)C(=O)N2CCN(c3cc(Cl)cc(Cl)c3)CC2)NC(=O)NC1=O (stereo not shown) [compound 425]
3. C[C@H]1CN(C(=O)CCC2(c3ncccn3)NC(=O)NC2=O)CCN1c1cc(F)cc(Cl)c1 (stereo partly shown) [compound 463]
4. COC[C@]1(CC(C)C(=O)N2CCN(c3cc(F)cc(-c4cn[nH]c4)c3)[C@@H](C)C2)NC(=O)NC1=O (stereo partly shown) [compound 376]
5. CC(CC1(C)NC(=O)NC1=O)C(=O)N1CCN(c2ccccc2)[C@@H](C)C1 (stereo partly shown) [compound 217]
6. CC1(CCC(=O)N2CCN(c3ccccc3)CC2)NC(=O)NC1=O (stereo not shown) [compound 1]
7. CC(C)C(CC1(C)NC(=O)NC1=O)C(=O)N1CCN(c2cc(Cl)cc(Cl)c2)CC1 (stereo not shown) [compound 438]
8. Cc1ccc(-c2cccc(N3CCN(C(=O)CCC4(C5CC5)NC(=O)NC4=O)C[C@@H]3C)c2)cn1 (stereo partly shown) [compound 324]

< 5.40
6.61
< 5.40
5.61
< 5.40
< 4.70
5.89
< 5.40

# return pIC50 for each item in the list
1. Cc1c(Cl)cccc1N1CCN(C(=O)CCC2(C3CC3)NC(=O)NC2=O)CC1 (stereo not shown) [compound 98]
2. C[C@H]1CN(C(=O)CCC2(C3CC3)NC(=O)NC2=O)CCN1c1cccc(-c2cncnc2)c1 (stereo partly shown) [compound 377]
3. CC(CC1(CN2CCC(F)(F)C2)NC(=O)NC1=O)C(=O)N1CCN(c2cc(Cl)cc(Cl)c2)CC1 (stereo not shown) [compound 252]
4. Cc1cc(N2CCN(C(=O)CC[C@@]3(C)NC(=O)NC3=O)C[C@@H]2C)cc(C)c1Cl [compound 400]
5. C[C@H]1CN(C(=O)CCC2(C3CC3)NC(=O)NC2=O)CCN1c1cnccn1 (stereo partly shown) [compound 286]
6. COCC1(CC(C)C(=O)N2CCN(c3ccc(F)cc3)[C@@H](C)C2)NC(=O)NC1=O (stereo partly shown) [compound 366]

1. < 5.40
2. < 4.70
3. 5.57
4. 5.53
5. < 4.70
6. < 5.40
